experimentalTarget: human ether-à-go-go-related gene (hERG) potassium channel (human, UniProt Q12809);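 also: peak tail current of the secondary pulse compared with the same well before compound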
Sequence (Q12809 whole entry, looked up): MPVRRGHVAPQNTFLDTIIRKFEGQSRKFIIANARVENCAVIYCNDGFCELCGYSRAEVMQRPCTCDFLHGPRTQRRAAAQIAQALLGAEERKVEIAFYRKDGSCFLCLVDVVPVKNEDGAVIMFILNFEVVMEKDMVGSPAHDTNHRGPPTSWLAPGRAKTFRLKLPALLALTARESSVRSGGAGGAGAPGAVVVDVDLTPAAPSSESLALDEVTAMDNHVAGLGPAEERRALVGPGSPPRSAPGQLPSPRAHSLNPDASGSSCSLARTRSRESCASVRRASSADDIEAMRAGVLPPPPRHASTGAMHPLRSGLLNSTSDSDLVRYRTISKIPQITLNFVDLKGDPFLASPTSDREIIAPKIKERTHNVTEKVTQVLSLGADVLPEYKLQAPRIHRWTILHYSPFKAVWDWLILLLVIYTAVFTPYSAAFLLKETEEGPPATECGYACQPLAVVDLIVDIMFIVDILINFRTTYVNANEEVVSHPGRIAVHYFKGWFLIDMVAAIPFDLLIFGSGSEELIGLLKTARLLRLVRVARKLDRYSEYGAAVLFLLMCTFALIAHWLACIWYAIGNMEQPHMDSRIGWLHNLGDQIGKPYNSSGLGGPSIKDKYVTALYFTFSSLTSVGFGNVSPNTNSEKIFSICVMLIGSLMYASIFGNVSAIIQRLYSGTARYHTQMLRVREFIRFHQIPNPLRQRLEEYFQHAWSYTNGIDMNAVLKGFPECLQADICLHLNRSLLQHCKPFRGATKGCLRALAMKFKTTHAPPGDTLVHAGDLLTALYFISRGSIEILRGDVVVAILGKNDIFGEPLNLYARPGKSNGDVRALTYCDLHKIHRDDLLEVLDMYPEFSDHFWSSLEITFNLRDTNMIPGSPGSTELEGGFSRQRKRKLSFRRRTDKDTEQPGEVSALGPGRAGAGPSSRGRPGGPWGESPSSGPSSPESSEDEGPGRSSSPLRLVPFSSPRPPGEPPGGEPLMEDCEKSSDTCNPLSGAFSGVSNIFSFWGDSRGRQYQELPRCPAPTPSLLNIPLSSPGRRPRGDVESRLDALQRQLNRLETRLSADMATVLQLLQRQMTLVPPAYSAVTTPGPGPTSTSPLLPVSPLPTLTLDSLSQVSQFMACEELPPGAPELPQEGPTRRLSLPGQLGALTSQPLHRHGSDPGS
protocolText: primary screen, population patch clamp on CHO cells stably expressing hERG; higher = less effect of the substance
Screen size: about 310,000 compounds; about 14,000 (4.5%) showed an effect of 50% or more. The effect is printed as a negative number. This excerpt belongs to a sample that is enriched for strong results.
propertyMeasured: hERG current change (%, negative = inhibition) at 10uM
Please answer using a numeric value trailed by its unit.

Below: 3 molecules and their reported hERG current change (%, negative = inhibition) at 10uM.
| molecule | experimentalValue |
| --- | --- |
| COc1ccccc1NC(=S)NNC(=O)c1c(Cl)c(C)nn1C | 32.8% |
| COc1ccc(-c2noc3c2-c2nc(-c4ccc(Cl)cc4)sc2CC3)cc1 | 9.5% |
| CO/N=C/CC(=O)Nc1ccc(F)cc1F | 13.3% |

Query: What hERG current change (%, negative = inhibition) at 10uM value was documented for this molecule, CC(C)[C@H](NC(=O)c1ccco1)C(=O)OCC(=O)N1CC(=O)Nc2ccccc21 ?
Result: 13.3%

Query: Repeat for the following molecule: Cc1ccc(C2=Nc3cccnc3C(c3ccccc3)=NN2)cc1
Result: 0.802%

Query: Try Cc1ccc(NS(=O)(=O)c2ccc(C)c(C(=O)N3CCN(C)CC3)c2)cc1.Cl next.
Result: -14.8%

Query: Please give the result for Cc1occc1-c1nnc(SCC(=O)N2CCCCC2)o1 too.
Result: -8.31%

Query: Next record, please: COc1ccc(C)cc1NC(=O)C(OC(=O)c1ccc(Cl)c(S(=O)(=O)N(C)c2ccccc2)c1)c1ccccc1 (stereo not drawn)
Result: -0.711%

Query: Follow-up entry: O=C(Cn1c(=O)oc2cc(S(=O)(=O)NCc3ccccc3)ccc21)N1CCCC1
Result: 15.2%

Query: Follow-up entry: CCCN1C2=NCCN2c2cc(C)c(C)cc21.Cl
Result: -30.7%

Query: Note, next up: CC(C)CCn1cnc2c(oc3nc4c(cc32)CCCC4)c1=O
Result: -16.6%

Query: Can you check c1ccc([C@H]2CN3C(=N2)Sc2ccccc23)cc1 next?
Result: -19.2%

Query: What about CCN(CC)C(=O)COc1ccc(/C(C)=N/NC(=O)c2ccccc2Br)cc1 ?
Result: 8.89%

Query: Also, Cc1nn(C)cc1C(=O)/C=C/c1ccc([N+](=O)[O-])cc1 please.
Result: -12.4%

Query: Could you do the same for CCCCCCn1cnc2c(oc3nc4c(cc32)CCCC4)c1=O , please?
Result: 5.16%

Query: Note, next up: Cc1c(CN(C)C(=O)c2nn(C)cc2[N+](=O)[O-])cnn1C
Result: 8.63%

Query: Moving on to the next molecule: CCCN1C2=NCCCN2c2ccccc21.Cl
Result: -9.58%

Query: What do you get for CC(CC(=O)Nc1ccc(S(=O)(=O)Nc2ncccn2)cc1)c1ccccc1 (stereo not drawn) ?
Result: 6.78%

Query: Try the molecule COc1ccc(-c2cc3ccccc3n2CC(O)CNCCO)cc1.O=C(O)C(=O)O (stereo not drawn)
Result: 3.61%

Query: Another molecule: Cc1ccc(S(=O)(=O)NNC(=S)Nc2ccccc2)cc1
Result: 3.05%

====

# hERG current change (%, negative = inhibition) at 10uM listing for each entry below
experimentalTarget: human ether-à-go-go-related gene (hERG) potassium channel (human);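 also: peak tail current of the secondary pulse compared with the same well before compound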
protocolText: primary screen, population patch clamp on CHO cells stably expressing hERG; higher = less effect of the substance
Out of some 310,000 compounds screened, about 14,000 (4.5%) showed an effect of 50% or more. Effects have a minus sign here. For the sample, strong results were picked, then their nearest neighbours and some compounds at random.
Number in %, nothing else.

| molecule | experimentalValue |
| --- | --- |
| CN1CCCN(C(=O)/C=C/c2ccc(F)cc2)CC1 | -23.7 |
| CNC(=O)N1c2ccccc2NC(=O)CC1C (stereo not shown) | 9.32 |
| CCN1CCN(C(=O)/C=C/c2ccc(C)cc2)CC1 | -23.1 |
| Cc1cnc(NC(=O)CSc2c(Cl)cccc2Cl)s1 | -6.06 |
| COc1ccc(CNCC(O)(c2ccc(F)cc2)c2ccc(F)cc2)cc1OC | -62.1 |
| CC(C)(C)c1ccc(C(=O)c2c[nH]c(C(=O)NCCc3ccccn3)c2)cc1 | 15.1 |

Query: // fetch human ether-à-go-go-related gene (hERG) potassium channel (human) hERG current change (%, negative = inhibition) at 10uM for COc1ccccc1C(=O)Nc1ccnn1C1CCN(Cc2cnc(N(C)C)s2)CC1
Result: -65

Query: Same lookup for COc1ccc(CNCc2ccc(C(F)(F)F)cc2)cc1OC.O=C(O)C(=O)O , please.
Result: 6.54

Query: Now try COc1ccc(CNCC(O)(c2ccccc2)c2ccccc2)cc1OC .
Result: -60

Query: // query: O=C(Nc1ccccc1)N1CCc2ccccc21
Result: -21.2
